Data credit: patent US5928933A

Give % ee (enantiomeric excess of the D-isomer; L-isomer with porcine liver esterase) for every item shown.
- protocol text: Enzyme screens for resolution of racemic N-(methoxycarbonyl)-4-keto-D,L-proline methyl ester (Example 1)
- Type: biochemical
- settings: 0.100M racemate; pH 6.0, 5 h or pH 5.0, 24 h; 5.0 to 50 mg/mL enzyme; 25° C.; optimum
Give bare numbers, in %.

protease, trypsin porcine pancreas: commercial trypsin, source porcine pancreas (protein, UniProt P00761 9-231, looked up) Trypsin: IVGGYTCAANSIPYQVSLNSGSHFCGGSLINSQWVVSAAHCYKSRIQVRLGEHNIDVLEGNEQFINAAKIITHPNFNGNTLDNDIMLIKLSSPATLNSRVATVSLPRSCAAAGTECLISGWGNTKSSGSSYPSLLQCLKAPVLSDSSCKSSYPGQITGNMICVGFLEGGKDSCQGDSGGPVVCNGQLQGIVSWGYGCAQKNKPGVYTKVCNYVNWIQQTIAAN: 0

Field: next molecule
Problem: // Input: protease, type XXIV: commercial enzyme preparation, source bacterial (subtil. Carlsberg) (protein, UniProt P00780 106-379, looked up) Subtilisin Carlsberg: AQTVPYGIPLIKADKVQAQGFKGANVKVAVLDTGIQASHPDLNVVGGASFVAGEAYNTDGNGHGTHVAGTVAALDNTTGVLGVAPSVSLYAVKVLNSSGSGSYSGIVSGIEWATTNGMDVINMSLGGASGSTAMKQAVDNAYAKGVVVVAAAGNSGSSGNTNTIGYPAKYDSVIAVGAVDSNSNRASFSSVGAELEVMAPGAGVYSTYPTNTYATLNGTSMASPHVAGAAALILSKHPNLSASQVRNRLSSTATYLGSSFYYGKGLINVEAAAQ . Output its % ee (enantiomeric excess of the D-isomer; L-isomer with porcine liver esterase) only.
Solution: 18
